- system.tested: μ opioid receptor (UniProt P35372)
- Sequence (P35372 whole entry): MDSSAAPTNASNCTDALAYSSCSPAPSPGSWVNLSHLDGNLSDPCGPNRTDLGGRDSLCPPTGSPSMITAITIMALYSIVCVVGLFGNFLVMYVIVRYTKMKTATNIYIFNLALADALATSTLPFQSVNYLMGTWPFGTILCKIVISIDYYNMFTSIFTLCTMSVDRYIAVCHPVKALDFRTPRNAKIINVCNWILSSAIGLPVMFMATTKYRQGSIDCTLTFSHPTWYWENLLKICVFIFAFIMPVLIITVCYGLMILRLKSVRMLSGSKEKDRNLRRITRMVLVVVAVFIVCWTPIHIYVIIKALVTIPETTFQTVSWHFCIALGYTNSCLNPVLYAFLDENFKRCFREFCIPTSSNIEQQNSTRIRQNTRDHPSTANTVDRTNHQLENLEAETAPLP
Starred links: 1 amine or outer side, 2 acyl side, 3 side chain; linkers in the order of their positions; H or OH if unused. Non-standard residues stand in square brackets, D forms with d. No end group written: not given here. Phe(2-(2-methyl-1-propenyl)) = CC(C)=Cc1ccccc1C[C@H](N[*:1])C(=O)[*:2]; Phe(2-(4-MeO-phenyl)) = COc1ccc(-c2ccccc2C[C@H](N[*:1])C(=O)[*:2])cc1; Phe(2-vinyl) = C=Cc1ccccc1C[C@H](N[*:1])C(=O)[*:2]; Dmt = Cc1cc(O)cc(C)c1C[C@H](N)C(=O)O
Some binders, each annotated with its measured IC50 in the guinea pig ileum (GPI) assay.
reported.metric: IC50 in the guinea pig ileum (GPI) assay (nM)

• [Dmt][dR][Phe(2-vinyl)]G-NH2 (N-terminus assumed; SMILES C=Cc1ccccc1C[C@H](NC(=O)[C@@H](CCCNC(=N)N)NC(=O)[C@@H](N)Cc1c(C)cc(O)cc1C)C(=O)NCC(N)=O) [Dmt-D-Arg-Phe(2-vinyl)-Gly-NH2] = 0.389
• [Dmt][dR][Phe(2-(2-methyl-1-propenyl))]G-NH2 (N-terminus assumed; SMILES CC(C)=Cc1ccccc1C[C@H](NC(=O)[C@@H](CCCNC(=N)N)NC(=O)[C@@H](N)Cc1c(C)cc(O)cc1C)C(=O)NCC(N)=O) [Dmt-D-Arg-Phe(2-(2-methyl-1-propenyl)-Gly-NH2] = 0.701
• [Dmt][dR][Phe(2-(4-MeO-phenyl))]G-NH2 (N-terminus assumed; SMILES COc1ccc(-c2ccccc2C[C@H](NC(=O)[C@@H](CCCNC(=N)N)NC(=O)[C@@H](N)Cc2c(C)cc(O)cc2C)C(=O)NCC(N)=O)cc1) [Dmt-D-Arg-Phe(2-(4-MeO-phenyl))-Gly-NH2] = 0.901
